Measured pKd, listed per entry for reference.
Biological target: Human DNA ligase 1 (hLig1) (human, UniProt P18858 233-919)
Sequence (P18858 233-919): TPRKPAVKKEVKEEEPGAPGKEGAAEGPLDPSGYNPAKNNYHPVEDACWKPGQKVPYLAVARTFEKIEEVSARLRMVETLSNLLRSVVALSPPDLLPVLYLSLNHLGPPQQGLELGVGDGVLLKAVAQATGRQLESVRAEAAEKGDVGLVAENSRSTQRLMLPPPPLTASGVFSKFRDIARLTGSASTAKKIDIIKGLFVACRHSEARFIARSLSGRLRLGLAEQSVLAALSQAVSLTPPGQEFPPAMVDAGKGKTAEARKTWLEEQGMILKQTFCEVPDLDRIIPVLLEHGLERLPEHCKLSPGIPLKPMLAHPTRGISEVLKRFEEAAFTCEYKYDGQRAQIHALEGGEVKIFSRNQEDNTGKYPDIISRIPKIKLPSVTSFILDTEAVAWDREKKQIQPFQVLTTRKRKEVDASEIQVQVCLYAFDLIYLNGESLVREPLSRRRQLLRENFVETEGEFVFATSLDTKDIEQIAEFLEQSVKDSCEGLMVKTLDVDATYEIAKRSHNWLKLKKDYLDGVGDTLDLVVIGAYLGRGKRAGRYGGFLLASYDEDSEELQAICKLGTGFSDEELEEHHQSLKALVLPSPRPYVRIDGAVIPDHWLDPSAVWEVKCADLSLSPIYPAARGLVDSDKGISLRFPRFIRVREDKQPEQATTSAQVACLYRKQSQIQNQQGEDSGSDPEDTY
Assay: fluorescence anisotropy
pKd: −log10 of the molar value.
metric: pKd

{"binder": "nicked 32-bp dsDNA probe (dsDNA, 5'-phosphate on S6 at the nick) DNA 1: GGTAGCCACAGCCAGTCAGCCGATTGCGGGAC DNA 2: GTCCCGCAATCGGCTG DNA 3: ACTGGCTGTGGCTACC", "metric": "pKd", "measured-result": 5.11}
{"binder": "intact (unnicked) 32-bp dsDNA probe (dsDNA) DNA 1: GGTAGCCACAGCCAGTCAGCCGATTGCGGGAC DNA 2: GTCCCGCAATCGGCTGACTGGCTGTGGCTACC", "metric": "pKd", "measured-result": 4.96}

Origin of measurements: paper PMC6212786
